Assay: Vapor pressure of aqueous organic ammonium perbromides (isoteniscope)
Type: physicochemical
Conditions: 26° C. (Table 9)
Experimental: The vapor pressures of the aqueous organic ammonium perbromides were measured using an isoteniscope as described by Farrington, et al. [Farrington, D.; Alberti, R.; William, S.; Corwell, C.; Bender, P; and Harriman, S. Experimental Physical Chemistry, Experiment 17, pp. 164-165, 7th Edition, McGraw Hill Publishing Co., New York, 1976].
Each entry below lists one item and its recorded Vp value.

compound | Vp
CNCCO [Compound 5, Methylethanolammonium Perbromide] | 28 mmHg
CCCCN(CCCC)CCCC [Compound 12, Tributylammonium Perbromide, reference compound] | 28 mmHg
CN(C)CCO [Compound 7, Dimethylethanolammonium Perbromide, reference compound] | 30 mmHg
CCCCNCCCC [Compound 11, Dibutylammonium Perbromide] | 38 mmHg
BrBr [Compound 35, Bromine, reference compound] | 223 mmHg
CCCN [Compound 3, Propylammonium Perbromide] | 36 mmHg
NCCO | 116 mmHg
OCCNCCO [Compound 4, Diethanolammonium Perbromide] | 49 mmHg

###

experiment: Titration of oxidizable bromine (Standard Methods, Method 408A); format: physicochemical; details: higher aqueous ethanolammonium perbromides (Table 6)

compound | Tit. Ox. Br2 (% by Weight)
NCCO [Compound 28] | 63.9
NCCO [Compound 26] | 52.6
NCCO [Compound 27] | 57.7
NCCO [Compound 29] | 72.6

###

Quick reference for solubility among some compounds
experiment: Water solubility of perbromides

compound | solubility
CCCCNCCCC [Compound 11, Dibutylammonium Perbromide] | 10000 µg/mL
CCN(CC)CCO | 1000 µg/mL

###

Attribute: Tit. Ox. Br2
experiment: Titration of oxidizable bromine (Standard Methods, Method 408A); format: physicochemical; details: partially soluble perbromides, separated liquid phase (Table 2)
experimentalReadout: Tit. Ox. Br2 (% by Weight)

molecule | endpointResult
CCN(CC)CCO [Compound 14, Diethylethanolammonium] | 42.3
CCCCN(CCCC)CCCC [Compound 12, Tributylammonium Perbromide, reference compound] | 36.0
CCCCNCCCC [Compound 11, Dibutylammonium Perbromide] | 40.9
CCCNCCC [Compound 10, Dipropylammonium Perbromide] | 45.1

###

experiment: Titration of oxidizable bromine (Standard Methods, Method 408A); assay type: physicochemical; settings: of the sample used for vapor pressure (Table 9)
experimentalReadout: Ox. Br2

compound | endpointResult
CCCCN(CCCC)CCCC [Compound 12, Tributylammonium Perbromide, reference compound] | 37.5 % by Weight
BrBr [Compound 35, Bromine, reference compound] | 100 % by Weight
CCCCNCCCC [Compound 11, Dibutylammonium Perbromide] | 43.3 % by Weight
NCCO | 57.7 % by Weight
CNCCO [Compound 5, Methylethanolammonium Perbromide] | 39.3 % by Weight
